// compounds with IC50 on ERAP1 (Homo sapiens), multi-source literature

Query :: ERAP1 (Homo sapiens) / IC50 / COc1ccc(C(=O)O)cc1S(=O)(=O)Nc1cc(C(F)(F)F)ccc1-c1cnco1 : value?
Result :: < 5000 nM

Query :: Would you kindly repeat that for CCc1ccc(C(=O)O)cc1S(=O)(=O)Nc1cc(S(C)(=O)=O)ccc1C1CCCNC1 (centres unmarked) ?
Result :: < 100 nM

Query :: Would you kindly repeat that for N#Cc1ccc(-c2ccc(F)s2)c(NS(=O)(=O)c2cc(C(=O)O)ccc2C2CC2)c1 ?
Result :: < 500 nM

Query :: Would you kindly repeat that for Cc1oncc1-c1cc(NS(=O)(=O)c2cc(C(=O)O)ccc2C2CC2)c(OC2CC(F)(F)C2)cc1Cl ?
Result :: < 1 nM

Query :: Would you kindly repeat that for N#Cc1cc(NS(=O)(=O)c2cc(C(=O)O)ccc2C2CC2)c(OC2CCC3(CC3)C2)cc1Cl (centres unmarked) ?
Result :: < 1 nM

Query :: Would you kindly repeat that for CS(=O)(=O)c1ccc(C2CCCCC2)c(NS(=O)(=O)c2cc(C(=O)O)ccc2C2CC2)c1 ?
Result :: < 100 nM

Query :: Would you kindly repeat that for N#Cc1ccc(OC2CCCC2)c(NS(=O)(=O)c2cc(C(=O)O)ccc2C2CC2)c1 ?
Result :: 1 to 5 nM

Query :: Would you kindly repeat that for COc1ccc(C(=O)O)cc1S(=O)(=O)Nc1cc(S(C)(=O)=O)ccc1N1CCC[C@@H](O)C1 ?
Result :: < 500 nM
